test system: parental wild-type Ba/F3 cells; experiment: Ba/F3 (WT) cell proliferation assay (Alamar Blue); type: cell-based; conditions: Mus musculus, BaF3; 72 hours, Alamar Blue; read-out: BaF3 WT prolif
pIC50: −log10 of the molar value.
// reported pIC50 for each item listed

| compound | pIC50 |
| --- | --- |
| COc1ncc(-c2ccn3c(-c4cccc(NC(=O)NCC(F)(F)F)c4)cnc3c2)cc1C [Example 188] | 6.37 |
| CCNC(=O)Nc1cccc(-c2cnc3cc(-c4ncc(OC)cn4)ccn23)c1 [Example 230] | 6.80 |
| CNc1cc(-c2ccn3c(-c4cccc(NC(=O)NCC(F)(F)F)c4)cnc3c2)ncn1 [Example 195] | 5.30 |
| COc1ccnc(-c2ccn3c(-c4cccc(NC(=O)NCC(F)(F)F)c4)cnc3c2)n1 [Compound 336] | 6.34 |
| CC(C)(C(=O)NC1CC1)n1cc(-c2ccn3c(-c4cccc(NC(=O)NCC(F)(F)F)c4)cnc3c2)cn1 [Example 71] | 5.82 |
| O=C(NCC(F)(F)F)Nc1cccc(-c2cnc3cc(-c4nnc(C5CCCO5)s4)ccn23)c1 (centres unmarked) [Example 1] | 6.04 |
| O=C(NCC(F)(F)F)Nc1cccc(-c2cnc3cc(-c4nnc(NC5CC5)s4)ccn23)c1 [Compound 250] | 5.76 |
| COc1cc(-c2ccn3c(-c4cccc(NC(=O)NCC(F)(F)F)c4)cnc3c2)ncn1 [Example 183] | 6.54 |

* * *

tested on: Ba/F3-TEL-FGFR3 cells; assay: Ba/F3-TEL-FGFR3 cell proliferation assay (Alamar Blue); assay type: cell-based; conditions: 72 hours, Alamar Blue; read-out: BaF3-TEL-FGFR3 prolif
IC50 listing for selected molecules.
quantity: IC50

| molecule | meas-value |
| --- | --- |
| Cc1nc(-c2ccn3c(-c4cccc(NC(=O)NCC(F)(F)F)c4)cnc3c2)cc(N(C)C)n1 [Example 198] | 270 nM |
| CS(=O)(=O)N1CCC(n2cc(-c3ccn4c(-c5cccc(NC(=O)NCC(F)(F)F)c5)cnc4c3)cn2)CC1 [Example 74] | 96 nM |
| CC(C)(O)c1ccc(-c2ccn3c(-c4cccc(NC(=O)NCC(F)(F)F)c4)cnc3c2)cc1 [Compound 321] | 21 nM |
| CC(C)(C(N)=O)n1cc(-c2ccn3c(-c4cccc(NC(=O)NCC(F)(F)F)c4)cnc3c2)cn1 [Example 72] | 760 nM |

* * *

system: parental wild-type Ba/F3 cells; test: Ba/F3 (WT) cell proliferation assay (Alamar Blue); type: cell-based; details: Mus musculus, BaF3; 72 hours, Alamar Blue; read-out: BaF3 WT prolif
pIC50: −log10 of the molar value.
Think of 6 as a floor: if pIC50 stands on it or above, it is True; beneath it, False.

| molecule | class-name |
| --- | --- |
| Cc1ncc(C#Cc2ccn3c(-c4cccc(NC(=O)NCC(F)(F)F)c4)cnc3c2)n1C | False |
| O=C(NCC(F)(F)F)Nc1cccc(-c2cnc3cc(C#CCCO)ccn23)c1 | True |
| COc1nccc(-c2ccn3c(-c4cccc(NC(=O)NCC(F)(F)F)c4)cnc3c2)n1 | True |
| Cn1ccnc1C#Cc1ccn2c(-c3cccc(NC(=O)NCC(F)(F)F)c3)cnc2c1 | False |
| CNC(=O)c1cc(C)nc(-c2ccn3c(-c4cccc(NC(=O)NCC(F)(F)F)c4)cnc3c2)n1 | False |
| CC(C)(C)OC(=O)NCC1CCN(c2ccc(-c3ccn4c(-c5cccc(NC(=O)NCC(F)(F)F)c5)cnc4c3)cn2)CC1 | True |
| CC(C)c1cnc(N)nc1-c1ccn2c(-c3cccc(NC(=O)NCC(F)(F)F)c3)cnc2c1 | False |
